The values you see were collected from paper PMC2756588.

Target: T1, Pex13, P80667
T1 sequence (P80667 295-386, looked up): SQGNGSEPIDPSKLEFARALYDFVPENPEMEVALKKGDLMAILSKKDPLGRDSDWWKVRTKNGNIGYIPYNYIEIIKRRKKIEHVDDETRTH
Experiment: SPOT array
Settings: median of control spots 1341
Parameter: SPOT intensity

Look over these answered cases.
{"Binder": "LKPPIGRPPKFPKSP", "SPOT intensity": 4}
{"Binder": "RRRIAYPFYPFKKLG", "SPOT intensity": 5}
{"Binder": "IKTRSVPKIPSIESV", "SPOT intensity": 32}

P. ILARAILTIPRVLDK
Q. NPNRRAPRRPLSTQH
Which value of SPOT intensity is numerically greater: that of P or that of Q ? Answer by stating the label of the chosen item.
P
(P: 56, Q: 27)

1. EREKALPPIPFTTTL
2. RKRRTHLRLPLIRSN
Lab log: flag the item ( 1 or 2 ) with the smaller SPOT intensity figure. Answer by stating the label of the chosen item.
2
(2: 0, 1: 12)
